tested on: NCI/ADR-RES ovarian; experiment: NCI tumour cell line growth inhibition, 48 h; in the data active means GI50 below about 0.43 µM; inactive means the rest
Outcome codes: Y for active, N for inactive

>  <Compound>
C[C@@H]1C[N+]2([O-])[C@H]3C4=CCC[C@@H]4CC[C@H]3[C@@]3(C)OC(=O)CC[C@]34CC[C@H]1[C@@H]42 (some centres undefined)

>  <Class Label>
N

$$$$
>  <Compound>
O=c1c2ccc3cccc4c(=O)c5ccc6cccc1c6c5-c2c34

>  <Class Label>
N

$$$$
>  <Compound>
CCc1ccc(CNCC(O)c2ccccc2)cc1 (centres undefined)

>  <Class Label>
N

$$$$
>  <Compound>
Nc1nc2c(c3ncccc13)C(c1cccc(Br)c1)Cc1ncccc1-2 (centres undefined)

>  <Class Label>
Y

$$$$
>  <Compound>
O=c1c2cc(F)ccc2sc2c(N3CCNCC3)nc3ccccc3c12

>  <Class Label>
N

$$$$
>  <Compound>
O=C(N/N=C/c1ccccc1O)c1ccccc1O

>  <Class Label>
N

$$$$
>  <Compound>
CCn1cc(C(=O)O)c(=O)c2cc(F)c(N3CCN(S(=O)(=O)c4ccc(Cl)cc4)CC3)cc21

>  <Class Label>
N

$$$$
>  <Compound>
O=C(Nc1cccc(-n2cc(-c3ccncc3)c(-c3ccc(Cl)c(O)c3)n2)c1)Nc1ccc(Cl)c(C(F)(F)F)c1

>  <Class Label>
N

$$$$
>  <Compound>
O=C1Nc2cc(Cl)ccc2/C1=C\c1c(-c2ccc(F)cc2)nc2ccccn12

>  <Class Label>
Y

$$$$

* * *

system: A549 NSCLC; assay: NCI tumour cell line growth inhibition, 48 h
Measurement Name: TGI

>  <Smiles Repr>
COc1ccc(C(N)=O)c(OC)c1OCc1ccccc1

>  <Measurement Name>
TGI

>  <Reported Result>
> 100 µM

$$$$
>  <Smiles Repr>
O=C(NC(=S)Nc1ccccc1)c1ccc([N+](=O)[O-])cc1

>  <Measurement Name>
TGI

>  <Reported Result>
> 100 µM

$$$$
>  <Smiles Repr>
Oc1ccc2ccccc2c1CN(Cc1c(O)ccc2ccccc12)C1CCCCC1

>  <Measurement Name>
TGI

>  <Reported Result>
44.4 µM

$$$$
>  <Smiles Repr>
O=C1C=CC(=O)N1C1CCCCCCCCCCC1

>  <Measurement Name>
TGI

>  <Reported Result>
> 100 µM

$$$$
>  <Smiles Repr>
O=C(N/N=C/c1ccccc1O)c1ccccc1O

>  <Measurement Name>
TGI

>  <Reported Result>
> 100 µM

$$$$

* * *

tested on: HT29 colon; test: NCI tumour cell line growth inhibition, 48 h
Where a SMILES comes first, the peptide text is derived from it. The star is where a group is joined. Boc = CC(C)(C)OC(=O)*

>  <Compound>
CN(C)Cc1cc(N=Nc2ccccc2)ccc1O

>  <TGI>
> 100 µM

$$$$
>  <Compound>
OC1(c2ccccc2)c2ccccc2NC2=NCCN21 (centres undefined)

>  <TGI>
> 100 µM

$$$$
>  <Compound>
O=C(NC(=S)Nc1ccccc1)c1ccc([N+](=O)[O-])cc1

>  <TGI>
> 100 µM

$$$$
>  <Compound>
CCN(CC)Cc1cc(Nc2c3ccccc3nc3c4ccccc4n(C)c23)cc(CN(CC)CC)c1O

>  <TGI>
11.8 µM

$$$$
>  <Compound>
O=C1CN2C(Cl)(Cl)C2(c2ccccc2)c2cc(Cl)ccc2N1CC1CC1 (centres undefined)

>  <TGI>
44.9 µM

$$$$
>  <Compound>
CN1C(=O)CC2CCCN2C1=O (centres undefined)

>  <TGI>
> 100 µM

$$$$
>  <Compound>
Nc1cc(-c2ccccc2)nn1-c1nsc2ccccc12

>  <TGI>
> 100 µM

$$$$
>  <Compound>
O=C1C2C(C(=O)N1c1ccccc1)C1(Br)c3ccccc3C2(Br)C2C(=O)N(c3ccccc3)C(=O)C21 (centres undefined)

>  <TGI>
> 31.6 µM

$$$$
>  <Compound>
O=S(=O)(Nc1ccccc1)c1ccc(-c2c3nc(c(-c4ccc(S(=O)(=O)Nc5ccccc5)cc4)c4ccc([nH]4)c(-c4ccc(S(=O)(=O)Nc5ccccc5)cc4)c4nc(c(-c5ccc(S(=O)(=O)Nc6ccccc6)cc5)c5ccc2[nH]5)C=C4)C=C3)cc1

>  <TGI>
> 31.6 µM

$$$$
>  <Compound>
CCOC(=O)[C@H]1O[C@@H]1C(=O)N[C@@H](CC(C)C)C(=O)NCCc1ccc(O)cc1

>  <TGI>
> 100 µM

$$$$
>  <Compound>
COc1ccccc1/C=C1\Sc2scc(-c3ccc(O)c(O)c3)[n+]2C1=O

>  <TGI>
41.4 µM

$$$$
>  <Compound>
CCc1ccc(CNCC(O)c2ccccc2)cc1 (centres undefined)

>  <TGI>
68.4 µM

$$$$
>  <Compound>
CC(C)(C)OC(=O)NC(Cc1ccc(O)cc1)C(=O)NC(CCCCN)C(=O)O (stereo not drawn) (Boc-Tyr-Lys-OH; configuration not given here)

>  <TGI>
> 100 µM

$$$$
>  <Compound>
CC(=O)O[C@H]1CCC2(C)C(=CCC3C2CCC2(C)/C(=N/OC(=O)c4ccc(N(CCCl)CCCl)cc4)CCC32)C1 (some centres undefined)

>  <TGI>
> 100 µM

$$$$
